Molecular target: human ACC2 (Homo sapiens, UniProt O00763)
Construct: made in house; host or cells: insect cells (baculoviral expression system)
Sequence (O00763 129-2458 limits assumed): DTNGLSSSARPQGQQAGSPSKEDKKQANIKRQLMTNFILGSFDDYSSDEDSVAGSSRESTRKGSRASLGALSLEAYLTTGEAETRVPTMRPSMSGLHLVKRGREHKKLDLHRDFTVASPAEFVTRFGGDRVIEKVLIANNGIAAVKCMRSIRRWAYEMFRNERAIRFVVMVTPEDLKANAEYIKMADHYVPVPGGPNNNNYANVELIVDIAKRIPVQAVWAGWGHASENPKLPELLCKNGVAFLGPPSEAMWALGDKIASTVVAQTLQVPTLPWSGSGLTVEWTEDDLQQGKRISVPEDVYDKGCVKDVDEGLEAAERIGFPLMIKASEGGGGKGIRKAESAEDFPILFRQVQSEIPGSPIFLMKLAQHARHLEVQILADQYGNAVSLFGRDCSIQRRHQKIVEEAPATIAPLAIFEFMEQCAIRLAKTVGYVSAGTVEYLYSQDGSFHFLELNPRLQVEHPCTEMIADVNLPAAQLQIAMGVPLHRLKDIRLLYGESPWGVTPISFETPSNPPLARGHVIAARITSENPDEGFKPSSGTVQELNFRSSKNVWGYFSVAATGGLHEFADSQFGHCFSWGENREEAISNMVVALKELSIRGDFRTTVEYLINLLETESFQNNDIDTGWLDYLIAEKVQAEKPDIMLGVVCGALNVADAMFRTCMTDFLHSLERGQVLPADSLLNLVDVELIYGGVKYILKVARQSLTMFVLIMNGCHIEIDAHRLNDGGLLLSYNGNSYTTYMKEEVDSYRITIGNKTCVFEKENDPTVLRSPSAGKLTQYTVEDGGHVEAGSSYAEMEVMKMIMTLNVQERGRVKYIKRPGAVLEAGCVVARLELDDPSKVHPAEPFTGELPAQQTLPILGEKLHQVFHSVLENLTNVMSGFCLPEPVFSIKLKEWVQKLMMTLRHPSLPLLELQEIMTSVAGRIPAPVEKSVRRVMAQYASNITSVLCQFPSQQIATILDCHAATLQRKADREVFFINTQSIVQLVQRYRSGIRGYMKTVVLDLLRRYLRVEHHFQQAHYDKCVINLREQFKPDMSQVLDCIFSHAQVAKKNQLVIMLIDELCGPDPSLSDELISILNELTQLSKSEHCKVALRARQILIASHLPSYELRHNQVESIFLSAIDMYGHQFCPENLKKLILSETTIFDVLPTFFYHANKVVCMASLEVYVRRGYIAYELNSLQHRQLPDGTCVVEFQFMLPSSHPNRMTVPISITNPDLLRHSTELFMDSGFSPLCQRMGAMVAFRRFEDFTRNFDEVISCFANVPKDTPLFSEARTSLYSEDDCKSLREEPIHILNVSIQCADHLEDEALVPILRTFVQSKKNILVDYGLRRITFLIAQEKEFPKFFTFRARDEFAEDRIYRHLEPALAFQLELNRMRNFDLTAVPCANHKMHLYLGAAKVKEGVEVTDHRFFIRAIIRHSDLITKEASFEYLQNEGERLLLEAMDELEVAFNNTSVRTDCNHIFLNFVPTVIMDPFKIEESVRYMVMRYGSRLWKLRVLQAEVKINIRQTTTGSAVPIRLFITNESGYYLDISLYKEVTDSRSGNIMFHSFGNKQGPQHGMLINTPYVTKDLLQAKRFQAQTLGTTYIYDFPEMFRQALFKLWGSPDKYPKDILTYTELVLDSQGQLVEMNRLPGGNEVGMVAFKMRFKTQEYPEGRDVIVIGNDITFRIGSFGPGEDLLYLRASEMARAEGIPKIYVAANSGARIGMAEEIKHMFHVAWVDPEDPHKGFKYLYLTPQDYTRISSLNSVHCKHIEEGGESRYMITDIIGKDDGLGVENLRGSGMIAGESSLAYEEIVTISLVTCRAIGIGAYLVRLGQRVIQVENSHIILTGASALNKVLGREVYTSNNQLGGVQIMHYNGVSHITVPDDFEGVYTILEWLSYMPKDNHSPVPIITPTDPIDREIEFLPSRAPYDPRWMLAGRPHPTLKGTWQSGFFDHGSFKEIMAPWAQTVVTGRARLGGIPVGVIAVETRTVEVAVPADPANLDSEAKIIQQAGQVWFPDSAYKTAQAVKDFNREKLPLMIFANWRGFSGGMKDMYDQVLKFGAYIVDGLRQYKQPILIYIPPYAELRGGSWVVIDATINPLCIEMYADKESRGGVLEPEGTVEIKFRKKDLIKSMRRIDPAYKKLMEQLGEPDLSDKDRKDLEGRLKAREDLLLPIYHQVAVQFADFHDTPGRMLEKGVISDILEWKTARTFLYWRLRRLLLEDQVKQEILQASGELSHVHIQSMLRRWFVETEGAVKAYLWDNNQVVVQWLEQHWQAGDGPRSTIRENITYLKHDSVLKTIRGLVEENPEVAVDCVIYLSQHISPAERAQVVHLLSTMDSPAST
Test: ACC2 assay, spectrophotometric 384 well assay (NADH-linked, coupled lactate dehydrogenase/pyruvate kinase)
Type: biochemical
Conditions: ACC2 assay; human ACC2 construct lacking 128 N-terminal amino acids; 25° C., 340 nm, 15 minutes; read-out: IC50
pIC50: −log10 of the molar value.

{"columns": ["Structure Smiles", "pIC50"],
 "data": [
  ["CCOc1ccc(OC2CN(c3ccc([C@H](C)NC(=O)c4cc(C)nn4C)cc3)C2)cc1", 5.76],
  ["CCOc1ccc(OC2CN(c3ccc([C@H](C)NC(=O)C(F)F)cc3)C2)cc1", 6.80],
  ["CCOc1ccc(OC2CN(c3ccc([C@H](C)NC(=O)c4ccc(C)nc4)cc3)C2)cc1", 5.66],
  ["CCOc1ccc(OC2CN(c3ccc([C@H](C)NC(=O)c4ccc5c(c4)nnn5C)cc3)C2)cc1", 5.47]
]}
